Target: KDR (human, UniProt P35968 20-1356)
Sequence (P35968 20-1356): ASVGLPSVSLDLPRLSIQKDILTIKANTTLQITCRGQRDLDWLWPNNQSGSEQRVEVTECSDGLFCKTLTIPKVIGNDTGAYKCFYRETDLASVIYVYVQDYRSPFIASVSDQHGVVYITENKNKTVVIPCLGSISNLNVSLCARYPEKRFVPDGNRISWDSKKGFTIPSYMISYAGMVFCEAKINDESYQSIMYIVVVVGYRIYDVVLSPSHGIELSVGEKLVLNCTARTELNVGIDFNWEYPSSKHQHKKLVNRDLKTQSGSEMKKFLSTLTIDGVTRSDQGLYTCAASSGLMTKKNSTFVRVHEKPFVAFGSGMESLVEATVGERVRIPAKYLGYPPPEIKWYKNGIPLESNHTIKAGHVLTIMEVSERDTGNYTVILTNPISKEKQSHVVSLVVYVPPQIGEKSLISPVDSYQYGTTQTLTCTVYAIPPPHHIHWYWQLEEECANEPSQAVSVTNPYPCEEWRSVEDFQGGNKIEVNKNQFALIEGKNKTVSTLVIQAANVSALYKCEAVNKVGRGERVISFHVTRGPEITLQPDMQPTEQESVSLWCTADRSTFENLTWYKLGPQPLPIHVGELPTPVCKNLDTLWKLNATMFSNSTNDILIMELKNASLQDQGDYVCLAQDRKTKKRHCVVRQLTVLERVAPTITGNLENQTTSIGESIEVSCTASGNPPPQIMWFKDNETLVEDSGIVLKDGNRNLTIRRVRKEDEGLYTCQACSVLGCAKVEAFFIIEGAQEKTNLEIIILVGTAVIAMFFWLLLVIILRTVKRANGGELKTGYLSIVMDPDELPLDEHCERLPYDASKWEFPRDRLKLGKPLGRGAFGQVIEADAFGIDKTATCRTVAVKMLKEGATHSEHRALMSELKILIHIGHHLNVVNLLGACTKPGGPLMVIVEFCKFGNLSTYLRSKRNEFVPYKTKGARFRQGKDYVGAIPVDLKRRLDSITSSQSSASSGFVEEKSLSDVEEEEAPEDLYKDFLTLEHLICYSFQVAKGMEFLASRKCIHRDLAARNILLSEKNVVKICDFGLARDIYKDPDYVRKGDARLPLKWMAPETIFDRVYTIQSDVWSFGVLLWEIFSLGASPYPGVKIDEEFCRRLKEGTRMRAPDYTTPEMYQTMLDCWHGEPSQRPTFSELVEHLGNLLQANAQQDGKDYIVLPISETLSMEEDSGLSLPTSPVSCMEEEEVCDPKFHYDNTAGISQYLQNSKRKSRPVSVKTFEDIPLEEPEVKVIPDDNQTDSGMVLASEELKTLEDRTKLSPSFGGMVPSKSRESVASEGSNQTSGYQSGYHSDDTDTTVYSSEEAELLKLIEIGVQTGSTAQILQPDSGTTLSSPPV
Experiment: cell-based or functional assay
quantity name: Activity at 133 nM Antibody Concentration (% Survival Inhibition), Average (%)
Give bare numbers, in %.

22B8 (antibody, V domains shown) VH: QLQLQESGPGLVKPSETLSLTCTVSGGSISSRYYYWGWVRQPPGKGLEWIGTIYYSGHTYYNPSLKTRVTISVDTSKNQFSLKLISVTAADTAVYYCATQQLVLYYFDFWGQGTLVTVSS VL: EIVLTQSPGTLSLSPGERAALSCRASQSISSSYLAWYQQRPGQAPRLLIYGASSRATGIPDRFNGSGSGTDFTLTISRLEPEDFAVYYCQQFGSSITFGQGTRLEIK :: 88
1G6 (antibody, V domains shown) VH: EVQLLESGGGLVQPGGSLRLSCAASGFTFSSYAMSWVRQAPGKGLEWVSAISGGGGNTYYADSVKGRFTISRDNSKNTLYLQMNSLRAEDTAVYYCSKVATDYWGQGTLVTVSS VL: QPVLTQSSSASASLGSSVKLTCTLSSGHSSYIIAWHQQQPGKAPRYLMKLEGSGSYNKGSGVPDRFSGSSSGADRYLTISNLQFEDEADYYCETWDSYTVVFGGGTKLTVL :: 0

Sample 24C9 (antibody, V domains shown) VH: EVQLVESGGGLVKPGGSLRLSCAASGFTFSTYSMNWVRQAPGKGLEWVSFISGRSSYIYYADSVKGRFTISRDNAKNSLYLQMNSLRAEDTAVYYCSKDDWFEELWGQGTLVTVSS VL: DIQMTQSPSSLSASVGDRVTITCRASQGIRNDLGWYQQKPGKAPKRLIYATFSLQSGVPSRFSGSGSGTEFTLTISSLQPEDFATYYCLQHNRYPWTFGQGTKVEIK — what was its Activity at 133 nM Antibody Concentration (% Survival Inhibition), Average?
57

Recorded values, source patent US20100260765A1.
